# System: Staphylococcus aureus
# assayMethodText: Antibacterial activity against methicillin-susceptible Staphylococcus aureus Smith
# Assay type: functional
Listed here: items and their measured MIC.

# compound, MIC [µg/mL]
data = [
    ("C=C[C@]1(C)C[C@@H](OC(=O)CSC2CCN(C(=O)CCn3cnc4c(N5CCC(NC)CC5)nc(N)nc43)CC2)[C@]2(C)[C@H](C)CC[C@]3(CCC(=O)[C@@H]32)[C@@H](C)[C@@H]1O", 0.5),
    ("C=C[C@]1(C)C[C@@H](OC(=O)CSC2CCN(C(=O)CCn3cnc4c(N5CCC(NC)C5)nc(N)nc43)CC2)[C@]2(C)[C@H](C)CC[C@]3(CCC(=O)[C@@H]32)[C@@H](C)[C@@H]1O (stereo not given in full)", 0.25),
    ("C=C[C@]1(C)C[C@@H](OC(=O)CSC2CCN(C(=O)CCn3cnc4c(N)ncnc43)CC2)[C@]2(C)[C@H](C)CC[C@]3(CCC(=O)[C@@H]32)[C@@H](C)[C@@H]1O", 0.2),
    ("C=C[C@]1(C)C[C@@H](OC(=O)CSC2CCN(C(=O)CCn3cnc4c(N5CCC(CNC)C5)ncnc43)CC2)[C@]2(C)[C@H](C)CC[C@]3(CCC(=O)[C@@H]32)[C@@H](C)[C@@H]1O (stereo not given in full)", 0.25),
    ("C=C[C@]1(C)C[C@@H](OC(=O)CSC2CCN(C(=O)CCn3cnc4c(N5CC[C@H](N)C5)ncnc43)CC2)[C@]2(C)[C@H](C)CC[C@]3(CCC(=O)[C@@H]32)[C@@H](C)[C@@H]1O", 0.125),
]
